Tested on: XF 498 CNS
Experiment: NCI tumour cell line growth inhibition, 48 h

[
  {
    "molecule": "O=C(O)Cc1ccccc1CCc1ccccc1Cl",
    "TGI": "> 100 µM"
  },
  {
    "molecule": "Cn1c(=O)n(CC2CS2)c2ccccc21 (stereo not drawn)",
    "TGI": "> 100 µM"
  },
  {
    "molecule": "CS(=O)(=O)NNS(=O)(=O)c1ccc(Cl)cc1",
    "TGI": "> 100 µM"
  },
  {
    "molecule": "C/C(=N\\NC(=S)N1CCN(c2ccccn2)CC1)c1nccs1",
    "TGI": "32.1 µM"
  },
  {
    "molecule": "COC(=O)c1ccc(C(=O)OC)c2nc3cc(C)ccc3nc12",
    "TGI": "> 100 µM"
  },
  {
    "molecule": "COC(=O)C(CC(=O)c1c[nH]c2ccccc12)c1c[nH]c2ccccc12 (stereo not drawn)",
    "TGI": "31.8 µM"
  },
  {
    "molecule": "CCOC(=O)C1=C(Nc2ccc(Cl)c(Cl)c2)OC/C1=N\\NC(=O)Cc1ccccc1",
    "TGI": "> 100 µM"
  },
  {
    "molecule": "Clc1ccc2c(c1)[nH]c1c2nc2sccn21",
    "TGI": "> 100 µM"
  },
  {
    "molecule": "COc1ccc2ccccc2c1CN1CCOCCOCCN(Cc2c(OC)ccc3ccccc23)CCOCCOCC1",
    "TGI": "> 63.2 µM"
  },
  {
    "molecule": "COC(=O)[C@H]1N[C@@H](C(=O)OC)C23CCC[C@H]2CC[C@]1(C(OC)OC)C3",
    "TGI": "> 100 µM"
  },
  {
    "molecule": "CCCCCCCCCCCCCC(=O)NCC(OCC)OCC",
    "TGI": "> 100 µM"
  },
  {
    "molecule": "COc1cc(C2c3cc4c(cc3[C@@H](OCCN(C)C)C3COC(=O)[C@H]23)OCO4)cc(OC)c1O (stereo partly drawn)",
    "TGI": "1.74 µM"
  },
  {
    "molecule": "CCOC(=O)c1c(-c2ccccc2)c(C(OC(c2ccccc2)c2c(-c3ccccc3)c(C(=O)OCC)n3ccccc23)c2ccccc2)c2ccccn12 (stereo not drawn)",
    "TGI": "> 100 µM"
  }
]
